Test system: A2780 ovarian carcinoma cells
Assay: Antiproliferative activity on A2780 cells, MTT (C.2)
Assay type: cell-based
Conditions: Homo sapiens, 96 h, four days of incubation, read-out: Cellular activity pIC50 C.2 (converted)
readoutType: IC50 (nM)

Cc1ccc2c(c1)c(CNCC1CCN(c3ncc(C(=O)NO)cn3)CC1)c(C)n2C [Compound 42]; 31.6

1: Cc1[nH]c2ccccc2c1CCNCC1CCN(c2ncc(C(=O)NO)cn2)CC1 [Compound 76]
2: CCCn1cc(CNCC2CCN(c3ncc(C(=O)NO)cn3)CC2)c2ccccc21 [Compound 62]
Of 1 and 2 , which one carries the higher reported IC50? When you have decided, please share the label of that item.
1

1: Cc1[nH]c2ccccc2c1CCNC1CCN(c2ncc(C(=O)NO)cn2)CC1 [Compound 29]
2: Cc1cccc2c1c(CNCC1CCN(c3ncc(C(=O)NO)cn3)CC1)cn2C [Compound 38]
Lower value for measured IC50? Options: 1 , 2 When you have decided, please share the label of that item.
2
(2: 31.6 nM, 1: 126 nM)
